# Tested on: Vero
# METHOD_NOTES: Antiherpes activity was measured in a plaque reduction assay in Vero cells, against HSV-1 strain KOS.
# Assay type: functional
# REPORTED_CONDITIONS: Chlorocebus sabaeus, read-out: ID50 (the source's name)
READOUT_LABEL: IC50

MOLECULE: Cc1cn([C@@H]2O[C@H](CO)[C@@H](O)[C@@H]2F)c(=O)[nH]c1=O [5-METHYL-2'-FLUOROARAURACIL]
IC50: 0.05 µg/mL

Task item: For Cc1cn(C2CC(CO)C(O)C2F)c(=O)[nH]c1=O (stereo unspecified) , what is its reported IC50?
Reply: > 100 µg/mL

Task item: Can you handle O=c1[nH]c(=O)n([C@H]2C[C@H](O)[C@@H](CO)O2)cc1I [IDOXURIDINE] next?
Reply: 0.1 µg/mL

Task item: Can you handle `Nc1ccn([C@@H]2C[C@H](CO)[C@@H](O)[C@@H]2F)c(=O)n1` next?
Reply: 13 µg/mL

Task item: Can you handle O=c1[nH]c(=O)n(C2CC(CO)C(O)C2F)cc1I (stereo unspecified) next?
Reply: 11 µg/mL

Task item: Can you handle `Nc1ccn([C@@H]2C[C@H](CO)[C@@H](O)[C@H]2F)c(=O)n1` next?
Reply: 18 µg/mL

Task item: Can you handle `O=c1[nH]c(=O)n([C@H]2C[C@H](O)[C@@H](CO)[C@H]2F)cc1I` next?
Reply: > 300 µg/mL

Task item: Can you handle O=c1ccn(C2CC(O)C(CO)C2F)c(=O)[nH]1 (stereo unspecified) next?
Reply: > 300 µg/mL

###

Documented IC50 across a set of molecules
# Tested on: Vero
# METHOD_NOTES: Antiherpes activity was measured in a plaque reduction assay in Vero cells, against HSV-2 strain 186.
# Assay type: functional
# REPORTED_CONDITIONS: Chlorocebus sabaeus, read-out: ID50 (the source's name)

Worked set:
MOLECULE: Cc1cn([C@@H]2O[C@H](CO)[C@@H](O)[C@@H]2F)c(=O)[nH]c1=O
IC50: 0.05 µg/mL
//
MOLECULE: Cc1cn(C2CC(CO)C(O)C2F)c(=O)[nH]c1=O (stereo unspecified)
IC50: > 100 µg/mL

Task item: What is its IC50 for Vero? Entry: `Nc1ccn([C@@H]2C[C@H](CO)[C@@H](O)[C@@H]2F)c(=O)n1`
Reply: 82 µg/mL

Task item: Can you handle `O=c1[nH]c(=O)n([C@H]2C[C@H](O)[C@@H](CO)[C@@H]2F)cc1I` next?
Reply: > 300 µg/mL

Task item: Can you handle `O=c1[nH]c(=O)n([C@H]2C[C@H](O)[C@@H](CO)O2)cc1I` next?
Reply: 0.9 µg/mL

Task item: Can you handle `Nc1ccn([C@@H]2C[C@H](CO)[C@@H](O)[C@H]2F)c(=O)n1` next?
Reply: 44 µg/mL

Task item: Can you handle O=c1ccn(C2CC(O)C(CO)C2F)c(=O)[nH]1 (stereo unspecified) next?
Reply: > 300 µg/mL

Task item: Can you handle `O=c1[nH]c(=O)n([C@@H]2C[C@H](CO)[C@@H](O)C2)cc1I` next?
Reply: 97 µg/mL

Task item: Can you handle Cc1cn(C2CC(CO)C(O)C2(F)F)c(=O)[nH]c1=O (stereo unspecified) next?
Reply: > 100 µg/mL

Task item: Can you handle `O=c1[nH]c(=O)n([C@H]2C[C@H](O)[C@@H](CO)[C@H]2F)cc1I` next?
Reply: > 300 µg/mL

Task item: Can you handle O=c1[nH]c(=O)n(C2CC(CO)C(O)C2F)cc1I (stereo unspecified) next?
Reply: > 100 µg/mL

###

# Test system: Vero
# METHOD_NOTES: Antiherpes activity was measured in a plaque reduction assay in Vero cells, against HSV-1 strain KOS.
# Type: functional
# REPORTED_CONDITIONS: Chlorocebus sabaeus, read-out: ID50 (the source's name)
Documented IC50 across a set of compounds

Worked set:
COMPOUND: O=c1[nH]c(=O)n([C@H]2C[C@H](O)[C@@H](CO)[C@@H]2F)cc1I
STUDY_SYSTEM: Vero
RESULT: > 300 µg/mL

COMPOUND: Cc1cn(C2CC(CO)C(O)C2(F)F)c(=O)[nH]c1=O (stereo not drawn)
STUDY_SYSTEM: Vero
RESULT: > 100 µg/mL

Task item: For `O=c1[nH]c(=O)n([C@@H]2C[C@H](CO)[C@@H](O)C2)cc1I` , what is its reported IC50?
Reply: 0.07 µg/mL

Provenance of the data: ChEMBL document CHEMBL1124931
